- measured-target: T1, human CAPRIN-1 expressed on the surface of human cancer cells (human, UniProt Q14444 2-709); note: test concentration or dose not given here
- T1 sequence: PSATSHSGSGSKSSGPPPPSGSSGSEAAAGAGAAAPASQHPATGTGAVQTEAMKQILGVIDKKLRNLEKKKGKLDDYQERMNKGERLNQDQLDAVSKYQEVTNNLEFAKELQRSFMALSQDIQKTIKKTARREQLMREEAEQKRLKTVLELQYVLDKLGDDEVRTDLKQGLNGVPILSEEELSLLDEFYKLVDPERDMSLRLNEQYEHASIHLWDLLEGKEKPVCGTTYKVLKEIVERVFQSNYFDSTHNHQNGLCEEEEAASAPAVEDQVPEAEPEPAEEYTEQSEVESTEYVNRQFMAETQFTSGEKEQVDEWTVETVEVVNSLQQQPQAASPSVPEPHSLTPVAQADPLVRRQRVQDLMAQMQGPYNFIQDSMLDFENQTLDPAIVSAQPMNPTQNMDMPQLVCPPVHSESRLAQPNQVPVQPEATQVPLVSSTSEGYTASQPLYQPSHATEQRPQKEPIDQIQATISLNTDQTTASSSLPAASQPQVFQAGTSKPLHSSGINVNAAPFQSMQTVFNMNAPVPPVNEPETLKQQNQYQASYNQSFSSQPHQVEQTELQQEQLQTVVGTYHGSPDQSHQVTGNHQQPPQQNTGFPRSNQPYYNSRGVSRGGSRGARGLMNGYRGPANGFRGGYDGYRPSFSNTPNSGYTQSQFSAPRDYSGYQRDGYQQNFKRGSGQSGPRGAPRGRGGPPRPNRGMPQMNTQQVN
- method-summary: cell-based or functional assay
observable: ADCC cytotoxic activity (51Cr release) against Caki-2

Measured ADCC cytotoxic activity (51Cr release) against Caki-2, human-mouse chimeric monoclonal antibody #2 (antibody, human IgG1, kappa, V domains shown) VH: GGGLVKPGGSLKLSCAASGFTFSSYGMSWVRQTPEKRLEWVATISSGGSYTYYPDSVKGRFTISRDNAKNTLYLQMSSLRSEDTAMYYCASLASYYFDYWGQGTTLTVSS VL: GARCDVQMIQSPSSLSASLGDIVTMTCQASQGTSINLNWFQQKPGKAPKLLIYGASSLEDGVPSRFSGSCFGTDFTLTISSLEDEDMATYFCLQHSYLPPLTFGAGTKLELKR : ≥ 18%

Measured ADCC cytotoxic activity (51Cr release) against Caki-2, human-mouse chimeric comparative monoclonal antibody 7 (antibody, human IgG1, kappa, V domains shown) VH: LQESGAELARPGASVKLSCKASGYTFTSYWMQWVKQRPGQGLEWIGAIYPGDGDTRYTQKFKGKATLTADKSSSTAYMQLSSLASEDSAVYYCARGEYGNYFAYWGQGTTVTVSS VL: TSDASLGERVTITCKASQDINSYLSWFQQKPGKSPKTLIYRANRLVDGVPSRFSGSGSGQDYSLTISSLEYEDMGIYYCLQYDEFPLTFGGGTKLEIKQ : < 8%

Measured ADCC cytotoxic activity (51Cr release) against Caki-2, human-chicken chimeric monoclonal antibody #4 (antibody, V domains shown) VH: AVTLDESGGGLQTPGGAVSLVCKGSGFTFSSYGMGWVRQAPGKGLEYVAAIRKDGSTNYGPAVKGRATISRDNGQSTVRLQLSNLRAEDTATYYCAKRSHTGVNAAKIDAWGRGTEVIVS VL: ALTQPASVSANPGETVKITCSGASHNYGWFQQKSPGSAPVTVIYSNDKRPSDIPSRFSGSKSGSTATLTITGVQADDEAVYFCGGYNIYGPTFGAGTTLTV : ≥ 34%

Measured ADCC cytotoxic activity (51Cr release) against Caki-2, human-chicken chimeric monoclonal antibody #2 (antibody, V domains shown) VH: AVTLDESGGGLQTPGGALSLVCKASGFTFRSHSMFWVRQAPGKGLEYVAGIYGVGRSIRYGSAVKGRATMSRDNGQSTVRLQLNNLRAEDTGTYYCAKSGYFSNRRYWDSGAYFIDAWGHGTEVIVS VL: ALTQPASVSANLGGTVEITCSGGYSNYGWYQQKSPGSAPVTVIYYNDKRPSDIPSRFSGSKSGSTGTLTITGVRAEDEAVYYCGGYDSSTDAGIFGAGTTLTV : ≥ 34%

Further cases:
Measured ADCC cytotoxic activity (51Cr release) against Caki-2, human-mouse chimeric monoclonal antibody #1 (antibody, V domains shown) VH: GPGLVQPSQSLSITCTVSGFSLTTYDLHWVRQSPGKGLEWLGVIWSGGSTDYNAAFISRLSISKDNSKSQVFFKMNSLQANDTAIYYCARNYGYSAWFAYWGQGTLVTVSA VL: DVLMTQTPLSLPVSLGDQASISCRSSQSIVHSNGNTYLEWYLQKPGQSPKLLIYKVSNRFSGVPDRFSGSGSGTDFTLKISRVEAEDLGVYYCFQGSHVPLTFGAGTKLELKR : ≥ 34%
